src = patent US20260297027A1

Biological target: FGF14 (Homo sapiens, UniProt Q92915)
Sequence (Q92915 1-252 isoform Q92915-2): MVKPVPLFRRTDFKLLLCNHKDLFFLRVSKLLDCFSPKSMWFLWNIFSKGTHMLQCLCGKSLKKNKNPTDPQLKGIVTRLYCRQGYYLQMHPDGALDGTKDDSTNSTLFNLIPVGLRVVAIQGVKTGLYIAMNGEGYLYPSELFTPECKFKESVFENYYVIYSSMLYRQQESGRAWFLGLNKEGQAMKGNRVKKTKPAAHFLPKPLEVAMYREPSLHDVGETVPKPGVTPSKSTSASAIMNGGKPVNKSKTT
Experiment: Surface plasmon resonance (SPR), FGF14
Conditions: Langmuir 1:1 interaction model (KD=koff/kon)
readoutKind: pKd
# pKd is unitless: minus log10 of the molar concentration; print number only

## Input Give its pKd value. Item: Cc1cccc(NC(=O)Cn2cc(CO)c3ccccc32)c1
## Output 5.54

---

biological target: Nav1.6 (Homo sapiens); construct: SPR against FGF14 and Nav1.6-C-terminal tail purified proteins; experiment: Surface plasmon resonance (SPR), Nav1.6-C-terminal tail; format: binding; details: Langmuir 1:1 interaction model (KD=koff/kon)
Sequence (Q9UQD0 1767-1912 limits assumed): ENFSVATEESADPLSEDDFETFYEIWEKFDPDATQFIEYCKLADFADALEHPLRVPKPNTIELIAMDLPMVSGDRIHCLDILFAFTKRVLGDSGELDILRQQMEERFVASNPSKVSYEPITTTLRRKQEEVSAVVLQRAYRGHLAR
readoutKind: pKd
# pKd is unitless: minus log10 of the molar concentration; print number only

## Input Give its pKd value. Item: Cc1cccc(NC(=O)Cn2cc(CO)c3ccccc32)c1
## Output 4.87
